compounds and their reported melting point

Chemical string | melting point
CCCCCCCCCc1c(C(=O)O)sc2cc(Br)ccc12 | 126 to 127 °C
CN(C[PH](=O)O)c1cc(Oc2ccc(C(F)(F)F)cc2Cl)ccc1[N+](=O)[O-] | 153 to 154 °C

Turning now to a further record.
Quick one: melting point of COc1cc(-c2nc(NC(=O)c3c(C)c4cc(C)ccc4n3CC(=O)O)sc2CCC2CCCCC2)c(OC)cc1Cl ?
151 to 160 °C

---

Readout name: melting point

The following molecules have reported results that may help.
Molecule | melting point
Cc1cccc(NC(=O)NCCC(=O)N(c2ccccc2)c2ccccc2)c1 | 179 °C
COc1ccc2c(c1)C(=O)N(c1cnc3c(ccn3C)c1)C2 | 198 to 199 °C
COC(=O)c1c(Sc2ccc(Cl)cc2)c2cc(C)ccc2n1C | 110 to 111 °C
CCN(C)c1nc2cc(NC(=O)c3c(C(=O)N4CCOCC4)cnn3C)ccn2n1 | 167 to 169 °C
CCOC(=O)Cc1c(C)n(Cc2cccc(O)c2)c2ccc(OC)cc12 | 114 to 116 °C
COc1ccc(CC(=S)N2CCOCC2)cc1 | 145 to 147 °C

Quick one: melting point of CC(CC(=O)Nc1cc(Cc2n[nH]c(=O)c3ccccc23)ccc1F)C(=O)O (configuration not stated) ?
140 to 144 °C

---

molecules and their reported melting point

The following molecules have reported results that may help.
Molecule | Readout name | Observed
CS(=O)(=O)c1ccc(-n2nc(C(F)(F)F)cc2-c2ccc(-c3cc4ccccc4o3)cc2)cc1 | melting point | 137 to 138 °C
O=C1OCCN1CCO | melting point | 32 to 33 °C
CCCc1nc2ccnn2c(O)c1Cc1ccc(-c2ccccc2C#N)cc1 | melting point | 251 °C
CN1CCN(C2=C3CSCC34CC(=CC#N)C=CC4=NC=C2)CC1 (configuration not stated) | melting point | 90 to 92 °C
CCN1c2ncc(CCc3ccnc(O)c3)cc2C(=O)N(C)c2ccc(Cl)nc21 | melting point | 243 to 244 °C
COc1cc(OCCN2CCOCC2)c(C=CC(=O)c2ccc(S(N)(=O)=O)cc2)cc1-c1cccs1 | melting point | 186 to 188 °C
Cc1cccc(Nc2cc(Nc3ccc(OCC(N)=O)cc3)ncn2)c1 | melting point | 212 to 215 °C
COc1ccc(C=Cc2cc(Br)c(OC)c(OC)c2)cc1O | melting point | 108 to 109 °C
Cc1cc(-c2nnc3cc(C(C)(C)C)c(OCc4cn(C)nn4)nn23)no1 | melting point | 219 to 221 °C
COc1cc(N2CCN([C@H]3CC[C@H](c4cn(C)c5ccc(C#N)cc54)CC3)CC2)c2ncccc2c1C | melting point | 212 to 213 °C

Quick one: melting point of COc1ccccc1C(=O)CN1C(=O)C(NC(=O)Nc2cccc(-c3nnn[nH]3)c2)N=C(c2ccccc2F)c2cccc(C)c21 (configuration not stated) ?
194 to 195 °C

And for COc1cc(C(=O)CSC)ccc1OC(C)=O ?
70.4 °C

---

Readout name: melting point

Quick one: melting point of CN1c2ccc(C=C3SC(=O)NC3=O)cc2CCC1Cc1ccccc1 (configuration not stated) ?
214 to 217 °C

And for COC(=O)c1ccc(C#CC(C)(O)c2ccc3c(c2)C(C)(C)CCC3(C)C)cc1O (configuration not stated) ?
110 to 115 °C

And for CC(C)c1cc(O)cc2c1C(=O)N(CBr)S2(=O)=O ?
167 to 169 °C

And for NNC(=S)Cc1ccc(F)cc1 ?
150 to 152 °C

And for COc1cc2c(cc1OC)-c1c(-c3ccccc3)sc(=N)n1CC2 ?
123 to 125 °C

And for CCOC(=O)/C(F)=C/c1ccc(N2C[C@H](CNC(C)=O)OC2=O)cc1 ?
161 to 163 °C

And for COc1cc2ncc(C#N)c(Nc3ccc(Oc4ccccc4)cc3)c2cc1OC ?
239 to 241 °C
